Test: Thermodynamic solubility of compound in PBS at pH 7.4 incubated for 24 hrs under shaking condition by HPLC analysis
Type: physicochemical
Details: read-out: Therm_solubility
Reported solubility thermodynamic at 24 h values for the following compounds.

>  <structure-smiles>
COC(=O)c1c(N)c(C#N)nn1-c1ccccc1OCc1ccccc1

>  <unit-string>
µM

>  <solubility thermodynamic at 24 h>
9.6

$$$$
>  <structure-smiles>
COC(=O)c1c(N)c(C#N)nn1-c1cccc(OCc2ccccc2)c1

>  <unit-string>
µM

>  <solubility thermodynamic at 24 h>
1.03

$$$$

----------
Test: Cytotoxicity against human HeLa-P4 cells at 50 uM […] by MTS assay relative to control
Format: cell-based
Settings: hela p4, 50 µM

>  <structure-smiles>
COC(=O)c1c(N)c(C#N)nn1-c1ccccc1C(=O)OC(C)(C)C

>  <operator-symbol>
=

>  <Activity, %>
2.8

$$$$
>  <structure-smiles>
COC(=O)c1c(N)c(C#N)nn1-c1cccc(C(F)(F)F)c1

>  <operator-symbol>
>

>  <Activity, %>
15

$$$$
>  <structure-smiles>
COC(=O)c1c(N)c(C#N)nn1-c1ccc(C(=O)OC(C)(C)C)cc1

>  <operator-symbol>
=

>  <Activity, %>
14

$$$$
